As shown below, each of these molecules has a reported relative enzymatic activity value.
Molecular target: DNA primase (UniProt P0ABS7)
Sequence (P0ABS7 whole entry): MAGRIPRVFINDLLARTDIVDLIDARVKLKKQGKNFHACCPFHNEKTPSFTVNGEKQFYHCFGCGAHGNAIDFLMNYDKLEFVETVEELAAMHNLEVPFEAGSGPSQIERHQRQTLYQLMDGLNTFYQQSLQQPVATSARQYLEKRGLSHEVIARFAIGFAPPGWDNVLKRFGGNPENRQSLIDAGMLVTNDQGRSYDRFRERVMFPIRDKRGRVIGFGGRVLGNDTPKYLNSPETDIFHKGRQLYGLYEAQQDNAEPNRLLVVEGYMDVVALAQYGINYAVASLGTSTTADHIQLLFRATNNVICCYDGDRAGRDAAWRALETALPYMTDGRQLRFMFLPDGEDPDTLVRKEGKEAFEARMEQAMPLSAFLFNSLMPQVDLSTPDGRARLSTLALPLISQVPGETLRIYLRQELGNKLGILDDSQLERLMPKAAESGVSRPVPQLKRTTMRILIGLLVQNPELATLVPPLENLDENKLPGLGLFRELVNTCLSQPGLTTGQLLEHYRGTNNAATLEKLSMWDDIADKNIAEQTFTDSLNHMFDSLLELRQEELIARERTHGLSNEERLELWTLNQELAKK
Assay: relative enzymatic activity vs untreated control (fraction); higher = less inhibition
Details: 100 µM; incubation time: 2 h at 37 C
Quantity Name: relative enzymatic activity

[[record]]
molecule = "NC[C@H]1O[C@H](O[C@H]2[C@H](O)[C@@H](O[C@H]3O[C@H](CO)[C@@H](O)[C@H](N)[C@H]3O)[C@H](N)C[C@@H]2N)[C@H](N)[C@@H](O)[C@@H]1O"
experimental_result = 0.46

[[record]]
molecule = "Nc1ncn(C2OC(CO)C(O)C2O)c(=O)n1 (centres undefined)"
experimental_result = 0.709

[[record]]
molecule = "Nc1nc(/C(=N/O)C(=O)N[C@@H]2C(=O)N3C(C(=O)O)=C(/C=C4\\CCN([C@@H]5CCNC5)C4=O)CS[C@H]23)ns1"
experimental_result = 0.816

[[record]]
molecule = "COC(=O)N/N=C/c1c[n+]([O-])c2ccccc2[n+]1[O-]"
experimental_result = 0.803


====

// relative enzymatic activity lookup, one value per entry
Biological target: DNA polymerase (UniProt P10443)
Sequence (P10443 whole entry): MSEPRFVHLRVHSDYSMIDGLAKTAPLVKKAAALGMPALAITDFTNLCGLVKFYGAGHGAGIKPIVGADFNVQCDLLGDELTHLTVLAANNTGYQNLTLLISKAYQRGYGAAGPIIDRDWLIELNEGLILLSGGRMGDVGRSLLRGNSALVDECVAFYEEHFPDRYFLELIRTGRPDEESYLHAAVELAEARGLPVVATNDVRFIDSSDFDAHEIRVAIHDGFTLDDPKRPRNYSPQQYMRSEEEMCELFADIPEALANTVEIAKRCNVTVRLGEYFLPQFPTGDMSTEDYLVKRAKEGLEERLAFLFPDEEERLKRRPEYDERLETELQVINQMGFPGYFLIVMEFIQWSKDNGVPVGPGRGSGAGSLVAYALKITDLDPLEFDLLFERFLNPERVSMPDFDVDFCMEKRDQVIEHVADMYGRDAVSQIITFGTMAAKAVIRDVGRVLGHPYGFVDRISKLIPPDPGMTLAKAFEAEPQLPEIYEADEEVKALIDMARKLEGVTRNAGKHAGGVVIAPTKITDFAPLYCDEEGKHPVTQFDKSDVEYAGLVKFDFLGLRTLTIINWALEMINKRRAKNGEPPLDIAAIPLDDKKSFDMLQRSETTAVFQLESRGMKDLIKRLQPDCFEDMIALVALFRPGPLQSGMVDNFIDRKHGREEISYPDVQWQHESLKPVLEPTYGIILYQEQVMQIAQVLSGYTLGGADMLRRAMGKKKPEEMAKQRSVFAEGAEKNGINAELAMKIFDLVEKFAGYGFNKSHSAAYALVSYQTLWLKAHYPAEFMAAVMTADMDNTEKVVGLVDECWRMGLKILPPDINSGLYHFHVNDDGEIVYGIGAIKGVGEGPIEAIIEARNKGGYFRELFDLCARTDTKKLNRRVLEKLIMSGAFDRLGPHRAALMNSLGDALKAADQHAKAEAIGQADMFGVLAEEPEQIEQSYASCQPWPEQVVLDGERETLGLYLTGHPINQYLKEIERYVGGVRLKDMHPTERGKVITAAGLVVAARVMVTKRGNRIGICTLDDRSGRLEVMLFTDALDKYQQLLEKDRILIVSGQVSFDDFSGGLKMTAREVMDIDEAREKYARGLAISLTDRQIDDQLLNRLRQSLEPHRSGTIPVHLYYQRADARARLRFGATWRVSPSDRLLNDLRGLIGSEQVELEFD
Assay: relative enzymatic activity vs untreated control (fraction); higher = less inhibition
Details: 100 µM; incubation time: 2 h at 37 C
Quantity Name: relative enzymatic activity

[[record]]
compound = "COC1(NC(=O)C2SC(=C(C(N)=O)C(=O)O)S2)C(=O)N2C(C(=O)O)=C(CSc3nnnn3C)CSC21 (centres undefined)"
quantity_name = "relative enzymatic activity"
experimental_result = 1.18

[[record]]
compound = "CC(NCCCc1cccc(C(F)(F)F)c1)c1cccc2ccccc12.Cl (centres undefined)"
quantity_name = "relative enzymatic activity"
experimental_result = 1.18

[[record]]
compound = "CN(C)C1C(O)=C(C(N)=O)C(=O)C2(O)C(O)=C3C(=O)c4c(O)cccc4C(C)(O)C3CC12.Cl (centres undefined)"
quantity_name = "relative enzymatic activity"
experimental_result = 1.37

[[record]]
compound = "O=C(O)c1c(O)c2c([nH]c1=O)CCCC2"
quantity_name = "relative enzymatic activity"
experimental_result = 1.08

[[record]]
compound = "CCn1cc(C(=O)O)c(=O)c2cc(F)c(N3CCNCC3)nc21"
quantity_name = "relative enzymatic activity"
experimental_result = 0.579

[[record]]
compound = "Cc1scc2c1N(C(=O)CN1CCN(C)CC1)c1ccccc1NC2=O.Cl"
quantity_name = "relative enzymatic activity"
experimental_result = 1.17

[[record]]
compound = "CCn1nc(C(=O)O)c(=O)c2cc3c(cc21)OCO3"
quantity_name = "relative enzymatic activity"
experimental_result = 1.29

[[record]]
compound = "CC1(C)S[C@@H]2[C@H](NC(=O)[C@H](N)c3ccccc3)C(=O)N2[C@H]1C(=O)OCOC(=O)[C@@H]1N2C(=O)C[C@H]2S(=O)(=O)C1(C)C"
quantity_name = "relative enzymatic activity"
experimental_result = 0.512

[[record]]
compound = "Cn1cc(-c2[nH]c3cc(NC(=O)[C@H](N)C4CCCCC4)cc4c3c2C=NNC4=O)cn1"
quantity_name = "relative enzymatic activity"
experimental_result = 0.083


====

Biological target: DNA helicase (UniProt P0ACB1)
Sequence (P0ACB1 whole entry): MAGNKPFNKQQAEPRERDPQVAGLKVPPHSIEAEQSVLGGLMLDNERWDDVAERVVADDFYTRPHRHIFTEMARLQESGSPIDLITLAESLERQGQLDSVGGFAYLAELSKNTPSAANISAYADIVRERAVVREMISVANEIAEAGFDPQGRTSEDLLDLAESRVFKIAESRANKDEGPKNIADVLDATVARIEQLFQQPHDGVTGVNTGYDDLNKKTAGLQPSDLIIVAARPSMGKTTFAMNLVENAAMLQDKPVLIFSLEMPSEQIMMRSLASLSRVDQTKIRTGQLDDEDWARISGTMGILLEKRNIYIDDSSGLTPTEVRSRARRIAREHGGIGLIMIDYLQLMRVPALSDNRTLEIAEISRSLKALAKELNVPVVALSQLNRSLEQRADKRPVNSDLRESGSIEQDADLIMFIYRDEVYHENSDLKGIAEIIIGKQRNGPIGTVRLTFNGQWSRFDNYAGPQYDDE
Experiment: relative enzymatic activity vs untreated control (fraction); higher = less inhibition
Details: 100 µM; incubation time: 2 h at 37 C
Categories are defined by ranges of relative enzymatic activity, namely class 1 (below 0.4), class 2 (0.4 to below 0.5), class 3 (0.5 or more)

[[record]]
compound = "COC1C=COC2(C)Oc3c(C)c(O)c4c(O)c(c5c(nc6cc(C)ccn65)c4c3C2=O)NC(=O)C(C)=CC=CC(C)C(O)C(C)C(O)C(C)C(OC(C)=O)C1C (stereo not drawn)"
qualitative_label = "class 3"

[[record]]
compound = "COC1=C(N)C(=O)c2nc(-c3nc(C(=O)O)c(C)c(-c4ccc(OC)c(OC)c4O)c3N)ccc2C1=O"
qualitative_label = "class 1"

[[record]]
compound = "CC[C@@H]1OC(=O)[C@H](C)[C@@H](O[C@H]2C[C@@](C)(OC)[C@@H](O)[C@H](C)O2)[C@H](C)[C@@H](O[C@@H]2O[C@H](C)C[C@H](N(C)C)[C@H]2O)[C@](C)(O)C[C@@H](C)/C(=N\\OCOCCOC)[C@H](C)[C@@H](O)[C@]1(C)O"
qualitative_label = "class 3"

[[record]]
compound = "C=C1c2cccc(O)c2C(=O)[C@@H]2C(=O)[C@]3(O)C(=O)[C@@H](C(N)=O)C(=O)[C@@H](N(C)C)[C@@H]3[C@@H](O)[C@H]12"
qualitative_label = "class 1"

[[record]]
compound = "NC(=O)NN=Cc1ccc([N+](=O)[O-])o1"
qualitative_label = "class 3"

[[record]]
compound = "COC1(NC(=O)C(C(=O)[O-])c2ccc(O)cc2)C(=O)N2C(C(=O)[O-])=C(CSc3nnnn3C)COC21.[Na+].[Na+] (stereo not drawn)"
qualitative_label = "class 3"

[[record]]
compound = "CC1(C)S[C@@H]2[C@H](NC(=O)[C@H](N)c3ccccc3)C(=O)N2[C@H]1C(=O)OCOC(=O)[C@@H]1N2C(=O)C[C@H]2S(=O)(=O)C1(C)C"
qualitative_label = "class 2"

[[record]]
compound = "CN(C)c1ccc(O)c2c1CC1CC3C(N(C)C)C(O)=C(C(N)=O)C(=O)C3(O)C(O)=C1C2=O.Cl (stereo not drawn)"
qualitative_label = "class 1"

[[record]]
compound = "Cc1cn(C2CC(N=[N+]=[N-])C(CO)O2)c(=O)[nH]c1=O (stereo not drawn)"
qualitative_label = "class 2"

[[record]]
compound = "C[C@H]1COc2c(C3(N)CC3)c(F)cc3c(=O)c(C(=O)O)cn1c23"
qualitative_label = "class 2"

[[record]]
compound = "NCCCC[C@H](NC(=O)[C@@H](NC(=O)[C@H](Cc1c[nH]c2ccccc12)NC(=O)[C@H](CCCCN)NC(=O)[C@H](CCCCN)NC(=O)[C@H](Cc1c[nH]c2ccccc12)NC(=O)[C@H](Cc1c[nH]c2ccccc12)NC(=O)[C@H](CCCCN)NC(=O)[C@@H](N)CCCCN)C(c1ccccc1)c1ccccc1)C(N)=O"
qualitative_label = "class 1"


====

Target: DNA primase (UniProt P0ABS7)
Experiment: relative enzymatic activity vs untreated control (fraction); higher = less inhibition
Conditions: 100 µM; incubation time: 2 h at 37 C
Is relative enzymatic activity at least 0.8? Then met. If not, not met.

[[record]]
molecule = "CON=C(C(=O)NC1C(=O)N2C(C(=O)[O-])=C(CSc3nc(=O)c([O-])nn3C)CSC12)c1csc(N)n1.O.O.O.[Na+].[Na+] (stereo not drawn)"
system = "DNA primase (UniProt P0ABS7)"
qualitative_label = "not met"

[[record]]
molecule = "Cc1cn([C@H]2C[C@H](N=[N+]=[N-])[C@@H](CO)O2)c(=O)[nH]c1=O"
system = "DNA primase (UniProt P0ABS7)"
qualitative_label = "not met"

[[record]]
molecule = "O=C1CN(N=Cc2ccc([N+](=O)[O-])o2)C(=O)N1"
system = "DNA primase (UniProt P0ABS7)"
qualitative_label = "not met"

[[record]]
molecule = "CN(C)C1C(O)=C(C(N)=O)C(=O)C2(O)C(O)=C3C(=O)c4c(O)ccc(Cl)c4C(O)C3CC12.Cl (stereo not drawn)"
system = "DNA primase (UniProt P0ABS7)"
qualitative_label = "not met"

[[record]]
molecule = "CO/N=C(\\C(=O)N[C@@H]1C(=O)N2C(C(=O)O)=C(C[n+]3ccn4ncccc43)CS[C@H]12)c1nsc(N)n1"
system = "DNA primase (UniProt P0ABS7)"
qualitative_label = "not met"

[[record]]
molecule = "C[C@H]1[C@H](NC(=O)/C(=N\\OC(C)(C)C(=O)O)c2csc(N)n2)C(=O)N1S(=O)(=O)O"
system = "DNA primase (UniProt P0ABS7)"
qualitative_label = "met"

[[record]]
molecule = "CCn1cc(C(=O)O)c(=O)c2cc(F)c(N3CCN(C)CC3)cc21.CS(=O)(=O)O"
system = "DNA primase (UniProt P0ABS7)"
qualitative_label = "met"


====

Molecular target: Guanlyate kinase (UniProt Q0TBG1)
Sequence (Q0TBG1 whole entry): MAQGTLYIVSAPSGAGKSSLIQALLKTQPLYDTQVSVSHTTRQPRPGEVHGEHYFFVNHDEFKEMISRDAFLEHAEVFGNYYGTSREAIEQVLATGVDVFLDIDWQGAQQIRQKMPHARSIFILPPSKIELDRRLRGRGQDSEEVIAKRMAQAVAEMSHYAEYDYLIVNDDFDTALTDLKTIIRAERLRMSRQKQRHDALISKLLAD
Assay: relative enzymatic activity vs untreated control (fraction); higher = less inhibition
Details: 100 µM; incubation time: 2 h at 37 C
Class boundaries, taken from values of relative enzymatic activity, are as follows: low = under 0.9, intermediate = from 0.9 up to 1, high = 1 and over

[[record]]
compound = "CN(C)CCOC(c1ccccc1)c1ccccc1.Cn1c(=O)c2[nH]c(Cl)nc2n(C)c1=O"
qualitative_label = "high"

[[record]]
compound = "CO/N=C(\\C(=O)N[C@@H]1C(=O)N2C(C(=O)O)=C(C)CS[C@H]12)c1csc(N)n1"
qualitative_label = "low"

[[record]]
compound = "CC[C@H]1OC(=O)[C@H](C)[C@@H](O[C@H]2C[C@@](C)(OC)[C@@H](O)[C@H](C)O2)[C@H](C)[C@@H](O[C@@H]2O[C@H](C)C[C@H](N(C)C)[C@H]2O)[C@](C)(O)C[C@@H](C)C(=O)[C@H](C)[C@@H](O)[C@]1(C)O"
qualitative_label = "intermediate"

[[record]]
compound = "CN(C)C1C(O)=C(C(N)=O)C(=O)C2(O)C(O)=C3C(=O)c4c(O)cccc4C(C)(O)C3CC12.Cl (centres undefined)"
qualitative_label = "high"

[[record]]
compound = "CON=C(C(=O)NC1C(=O)N2C(C(=O)O)=C(CSC(=O)c3ccco3)CSC12)c1csc(N)n1.Cl (centres undefined)"
qualitative_label = "intermediate"

[[record]]
compound = "CNC1C(O)C(NC)C2OC3(O)C(=O)CC(C)OC3OC2C1O.Cl.Cl (centres undefined)"
qualitative_label = "low"

[[record]]
compound = "Oc1ccc(Cl)c2cccnc12"
qualitative_label = "low"

[[record]]
compound = "CCC1OC(=O)C(C)C(OC2CC(C)(OC)C(O)C(C)O2)C(C)C(OC2OC(C)CC(N(C)C)C2O)C(C)(O)CC(C)CN(C)C(C)C(O)C1(C)O (centres undefined)"
qualitative_label = "high"

[[record]]
compound = "CC1(C)S[C@@H]2[C@H](NC(=O)[C@H](NC(=O)N3CCNC3=O)c3ccccc3)C(=O)N2[C@H]1C(=O)O"
qualitative_label = "intermediate"

[[record]]
compound = "O=c1[nH]c(=O)n([C@@H]2C[C@@H](O)[C@@H](CO)O2)cc1F"
qualitative_label = "intermediate"

[[record]]
compound = "CN1CCN(c2c(F)cc3c(=O)c(C(=O)O)cn(CCF)c3c2F)CC1"
qualitative_label = "intermediate"

[[record]]
compound = "Cc1c(N)nc([C@H](CC(N)=O)NC[C@H](N)C(N)=O)nc1C(=O)N[C@H](C(=O)N[C@H](C)[C@@H](O)[C@H](C)C(=O)N[C@H](C(=O)NCCc1nc(-c2nc(C(=O)NCCCNCCCCN)cs2)cs1)[C@@H](C)O)[C@@H](O[C@@H]1O[C@@H](CO)[C@@H](O)[C@H](O)[C@@H]1O[C@@H]1O[C@H](CO)[C@@H](O)[C@H](OC(N)=O)[C@@H]1O)c1c[nH]cn1"
qualitative_label = "low"

[[record]]
compound = "CN(C)C1C(O)=C(C(N)=O)C(=O)C2(O)C(O)=C3C(=O)c4c(O)ccc(Cl)c4C(C)(O)C3CC12.Cl (centres undefined)"
qualitative_label = "intermediate"

[[record]]
compound = "CO/N=C(\\C(=O)N[C@@H]1C(=O)N2C(C(=O)O)=C(CSC(=O)c3ccco3)CS[C@H]12)c1csc(N)n1"
qualitative_label = "low"

[[record]]
compound = "CO/N=C(\\C(=O)N[C@@H]1C(=O)N2C(C(=O)O)=C(C[n+]3ccn4ncccc43)CS[C@H]12)c1nsc(N)n1"
qualitative_label = "intermediate"

[[record]]
compound = "CN1CCN(c2c(F)cc3c(=O)c(C(=O)O)cn4c3c2OCN4C)CC1"
qualitative_label = "intermediate"

[[record]]
compound = "CN(C)c1ccc(O)c2c1C[C@H]1C[C@H]3[C@H](N(C)C)C(=O)[C@@H](C(N)=O)C(=O)[C@@]3(O)C(=O)[C@H]1C2=O"
qualitative_label = "low"

[[record]]
compound = "COC(=O)N/N=C/c1ccc([N+](=O)[O-])o1"
qualitative_label = "intermediate"

[[record]]
compound = "O=C1NCCN1c1ncc([N+](=O)[O-])s1"
qualitative_label = "low"

